# EXPERIMENTAL_TARGET: human recombinant H-PGDS (Homo sapiens, UniProt O60760)
# Sequence (O60760 whole entry): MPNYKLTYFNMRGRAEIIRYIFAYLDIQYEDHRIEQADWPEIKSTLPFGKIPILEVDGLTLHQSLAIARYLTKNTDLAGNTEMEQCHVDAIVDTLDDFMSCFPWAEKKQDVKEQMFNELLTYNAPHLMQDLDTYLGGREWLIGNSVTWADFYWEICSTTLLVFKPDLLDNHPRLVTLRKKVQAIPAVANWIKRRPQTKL
# PROTOCOL_SUMMARY: Fluorescence Intensity h-PGDS TBA Enzyme Assay
# Assay type: biochemical
# CONDITIONS: 1:175,000 human recombinant H-PGDS, highest inhibitor concentration typically 1 μM
pIC50: −log10 of the molar value.
Note to self: values exactly at 7 are 1. So pIC50 at or above 7 is 1, below is 0.

| COMPOUND | ASSIGNED_CLASS |
| --- | --- |
| COc1ccc(C(N)CC(=O)NC(=O)c2ccc(-c3ccc(F)cc3)nc2)cc1OC (stereo not drawn) [Example 466] | 0 |
| COC(=O)CNC(=O)c1ccc(-c2ccc(F)cc2)nc1 [Example 500] | 0 |
| CC(C)c1cc(CNC(=O)c2ccc(-c3cccc(F)c3)nc2)on1 [Example 127] | 1 |
| O=C(NCCN1CCCCC1=O)c1ccc(-c2ccccc2)nc1 [Example 373] | 1 |
| Cc1cc(=O)[nH]c(N2CCC(CNC(=O)c3ccc(-c4cccc(F)c4)nc3)CC2)n1 [Example 109] | 1 |
| CC(O)CNC(=O)c1ccc(-c2cccc(F)c2)nc1 (stereo not drawn) [Example 198] | 1 |

pIC50 >= 7 for COc1cccc(-c2ccc(C(=O)NCC(C)(C)N3CCOCC3)cn2)c1 [Example 279] ?
0

Same question for COC(=O)CC(NC(=O)c1ccc(-c2cccc(OC)c2)nc1)c1cccnc1 (stereo not drawn) [Example 337] please.
0

Same question for O=C(NCC1CCCN(c2ccccn2)C1)c1ccc(-c2cccc(F)c2)nc1 (stereo not drawn) [Example 14] please.
1
